# protocol notes: Binding affinity to poly(dA-dT)2 DNA assessed as change in thermal melting temperature administered at compound to DNA ratio of 0.3 by thermistor analysis
The label is rule met for ΔTm below 10 °C and rule not met for ΔTm equal to or exceeding 10 °C.

[[record]]
mol = "N=C(N)Nc1ccc(-c2ccc(-c3ccc(NC(=N)N)cc3)cc2)cc1"
cat = "rule not met"

[[record]]
mol = "CC(C)NC(=N)Nc1ccc(-c2ccc(-c3ccc(NC(=N)NC(C)C)cn3)cc2)nc1"
cat = "rule met"

[[record]]
mol = "CNC(=N)Nc1ccc(-c2ccc(-c3ccc(NC(=N)NC)cc3)cc2)cc1"
cat = "rule not met"

[[record]]
mol = "CC(C)NC(=N)Nc1ccc(-c2ccc(-c3ccc(NC(=N)NC(C)C)cc3)cc2)cc1"
cat = "rule met"

[[record]]
mol = "N=C(N)Nc1ccc(-c2ccc(-c3ccc(NC(=N)N)cn3)cc2)nc1"
cat = "rule met"


Now turn to the next molecule.
query: Take the molecule N=C(N)c1ccc(-c2ccc(-c3ccc(C(=N)N)cc3)cc2)cc1 and say whether its ΔTm is less than 10 °C.
result: rule not met
